Parameter: IC50. Scope: all listed entries.
target desc: Tumour suppressor p53/oncoprotein Mdm2 (Homo sapiens, UniProt Q00987)
Sequence (P04637 whole entry, the tested form may be a part): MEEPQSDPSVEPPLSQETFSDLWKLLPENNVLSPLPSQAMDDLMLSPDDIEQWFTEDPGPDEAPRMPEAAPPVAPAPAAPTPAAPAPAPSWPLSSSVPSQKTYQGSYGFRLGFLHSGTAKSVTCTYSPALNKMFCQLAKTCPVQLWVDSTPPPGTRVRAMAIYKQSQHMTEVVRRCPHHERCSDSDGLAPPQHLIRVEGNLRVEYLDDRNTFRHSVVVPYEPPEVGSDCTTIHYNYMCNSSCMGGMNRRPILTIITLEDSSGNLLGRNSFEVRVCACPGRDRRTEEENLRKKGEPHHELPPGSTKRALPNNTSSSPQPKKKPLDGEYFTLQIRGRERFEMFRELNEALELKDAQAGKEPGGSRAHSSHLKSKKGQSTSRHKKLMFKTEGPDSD
Sequence (Q00987 whole entry, the tested form may be a part): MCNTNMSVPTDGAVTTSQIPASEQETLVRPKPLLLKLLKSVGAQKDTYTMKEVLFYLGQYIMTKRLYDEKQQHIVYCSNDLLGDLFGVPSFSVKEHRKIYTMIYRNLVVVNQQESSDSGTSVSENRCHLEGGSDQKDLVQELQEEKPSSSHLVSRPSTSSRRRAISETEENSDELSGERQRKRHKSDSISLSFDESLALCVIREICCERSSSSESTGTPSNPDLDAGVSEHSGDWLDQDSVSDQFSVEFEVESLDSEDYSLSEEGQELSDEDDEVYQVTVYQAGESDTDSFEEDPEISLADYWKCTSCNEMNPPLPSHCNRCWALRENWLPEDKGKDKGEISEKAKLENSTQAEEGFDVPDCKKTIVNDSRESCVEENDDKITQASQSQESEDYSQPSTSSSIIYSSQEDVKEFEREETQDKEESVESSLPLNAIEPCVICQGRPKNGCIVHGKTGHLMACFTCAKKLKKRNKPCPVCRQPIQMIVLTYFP
test protocol: Inhibition of human recombinant His-tagged MDM2 (1 to 118 residues) interaction with FAM-tagged p53-based peptide (unknown origin) incubated for 15 mins by fluorescence polarization assay
The answer is to be given in nM; state only the numeric part.

Below, each entry is followed by its recorded IC50 result.
CCC[C@H]1N(C(=O)c2cnccc2C(F)(F)F)CCC[C@@]1(Oc1csc(C(F)(F)F)c1C)C(=O)N1CCN(c2ccccc2OCCO)CC1	58
CCC[C@@H]1N(C(=O)c2cnccc2C(F)(F)F)CCC[C@]1(Oc1csc(C(F)(F)C(F)(F)F)c1)C(=O)N1CCN(c2ccccc2OCCO)CC1 (single isomer, unassigned)	25

IN: Identify measured IC50 corresponding to CCC[C@@H]1N(C(=O)c2cnccc2C(F)(F)F)CCC[C@]1(Oc1csc(C(F)(F)F)c1)C(=O)N1CCN(c2ccccc2OCCC(C)(C)C(=O)O)CC1 (single isomer, unassigned)
OUT: 10

IN: Identify measured IC50 corresponding to CCC[C@H]1N(C(=O)c2cnccc2C(F)(F)F)CCC[C@@]1(Oc1cccs1)C(=O)N1CCN(c2ccccc2OCCO)CC1 (racemic)
OUT: 2900

IN: Identify measured IC50 corresponding to CCC[C@H]1N(C(=O)c2cnccc2C(F)(F)F)CCC[C@@]1(Oc1csc(C(F)(F)F)c1)C(=O)N1CCN(c2ccccc2OC(C)(C)C(=O)O)CC1
OUT: 11

IN: Identify measured IC50 corresponding to CCC[C@H]1N(C(=O)c2cnccc2C(F)(F)F)CCC[C@@]1(Oc1csc(C(F)(F)F)c1)C(=O)N1CCN(c2ccccc2OCCCCC(=O)O)CC1
OUT: 7

###

test protocol: Intrinsic clearance in human liver microsomes
Assay type: ADME
test settings: read-out: CLH
Parameter: CLint scaled. Scope: all listed entries.
The answer is to be given in mL/min/kg; state only the numeric part.

Below, each entry is followed by its recorded CLint scaled result.
CCC[C@@H]1N(C(=O)c2cnccc2C(F)(F)F)CCC[C@]1(Oc1csc(C(F)(F)F)c1)C(=O)N1CCN(c2ccccc2OCC(=O)NC)CC1 (single isomer, unassigned)	13
CCC[C@@H]1N(C(=O)c2cnccc2C(F)(F)F)CCC[C@]1(Oc1csc(C(F)(F)F)c1)C(=O)N1CCN(c2ccccc2OCCO)CC1 (single isomer, unassigned)	14
CCC[C@@H]1N(C(=O)c2cnccc2C(F)(F)F)CCC[C@]1(Oc1ccc(C(F)(F)F)cc1)C(=O)N1CCN(c2ccccc2OCCO)CC1 (single isomer, unassigned)	23

Query compound follows.
IN: Identify measured CLint scaled corresponding to CCC[C@H]1N(C(=O)c2cnccc2C(F)(F)F)CCC[C@@]1(Oc1csc(C(F)(F)F)c1)C(=O)N1CCN(c2ccccc2OCCCC(=O)O)CC1
OUT: 3

###

System: Mus musculus
test protocol: Dose normalized AUC (0 to 24 hrs) in mouse at 1 mg/kg, po administered as single dose
Type: ADME, organism-based
test settings: in vivo
Parameter: AUC/dose. Scope: all listed entries.
The answer is to be given in µM·h; state only the numeric part.

Below, each entry is followed by its recorded AUC/dose result.
CCC[C@@H]1N(C(=O)c2cnccc2C(F)(F)F)CCC[C@]1(Oc1ccc(C(F)(F)F)cc1)C(=O)N1CCN(c2ccccc2OCCO)CC1 (single isomer, unassigned)	1.2
CCC[C@@H]1N(C(=O)c2cnccc2C(F)(F)F)CCC[C@]1(Oc1csc(C(F)(F)F)c1)C(=O)N1CCN(c2ccccc2OCCO)CC1 (single isomer, unassigned)	2
CCC[C@H]1N(C(=O)c2cnccc2C(F)(F)F)CCC[C@@]1(Oc1csc(C(F)(F)F)c1)C(=O)N1CCN(c2ccccc2OCCCC(=O)O)CC1	0.1
CCC[C@@H]1N(C(=O)c2cnccc2C(F)(F)F)CCC[C@]1(Oc1csc(C(F)(F)F)c1)C(=O)N1CCN(c2ccccc2OCC(=O)NC)CC1 (single isomer, unassigned)	2

Query molecule follows.
IN: Identify measured AUC/dose corresponding to CCC[C@H]1N(C(=O)c2cnccc2C(F)(F)F)CCC[C@@]1(Oc1csc(C(F)(F)F)c1)C(=O)N1CCN(c2ccccc2OCC(=O)O)CC1
OUT: 0.02

Ref: ChEMBL document CHEMBL3804796
